type: physicochemical; details: buffer
quantity measured: T1/2, temperature where 50% of the protein was unfolded, Buffer plus Fe2+ and aKG

- MON-HT1: engineered oxygenase protein, amino acid sequence SEQ ID NO:14 (protein) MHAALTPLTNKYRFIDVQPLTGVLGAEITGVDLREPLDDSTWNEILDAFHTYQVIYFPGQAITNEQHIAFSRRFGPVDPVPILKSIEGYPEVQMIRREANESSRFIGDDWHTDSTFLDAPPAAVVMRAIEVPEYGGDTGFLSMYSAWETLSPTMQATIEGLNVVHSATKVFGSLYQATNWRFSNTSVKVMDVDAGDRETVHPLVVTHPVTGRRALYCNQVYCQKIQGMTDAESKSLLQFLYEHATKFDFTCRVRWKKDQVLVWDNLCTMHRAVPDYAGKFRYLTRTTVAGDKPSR: 59 °C
- MON-HT6: engineered oxygenase protein, amino acid sequence SEQ ID NO:31 (protein) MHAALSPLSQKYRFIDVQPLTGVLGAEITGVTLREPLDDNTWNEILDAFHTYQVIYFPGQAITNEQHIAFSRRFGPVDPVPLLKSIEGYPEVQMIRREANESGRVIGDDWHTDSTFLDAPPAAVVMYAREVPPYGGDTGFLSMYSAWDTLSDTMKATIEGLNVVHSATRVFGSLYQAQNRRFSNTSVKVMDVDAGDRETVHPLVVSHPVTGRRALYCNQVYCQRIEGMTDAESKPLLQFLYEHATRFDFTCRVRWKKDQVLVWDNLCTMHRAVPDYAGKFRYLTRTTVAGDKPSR: 44 °C
- MON-HT10: engineered oxygenase protein, amino acid sequence SEQ ID NO:43 (protein) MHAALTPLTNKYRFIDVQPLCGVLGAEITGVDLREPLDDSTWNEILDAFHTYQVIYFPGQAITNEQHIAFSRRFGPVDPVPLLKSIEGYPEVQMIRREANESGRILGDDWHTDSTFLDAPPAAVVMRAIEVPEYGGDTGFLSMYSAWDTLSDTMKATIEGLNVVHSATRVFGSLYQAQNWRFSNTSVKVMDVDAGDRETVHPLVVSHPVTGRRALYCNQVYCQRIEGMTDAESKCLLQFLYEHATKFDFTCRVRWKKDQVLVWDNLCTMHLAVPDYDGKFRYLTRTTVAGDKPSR: 44 °C
- MON-HT2: engineered oxygenase protein, amino acid sequence SEQ ID NO:18 (protein) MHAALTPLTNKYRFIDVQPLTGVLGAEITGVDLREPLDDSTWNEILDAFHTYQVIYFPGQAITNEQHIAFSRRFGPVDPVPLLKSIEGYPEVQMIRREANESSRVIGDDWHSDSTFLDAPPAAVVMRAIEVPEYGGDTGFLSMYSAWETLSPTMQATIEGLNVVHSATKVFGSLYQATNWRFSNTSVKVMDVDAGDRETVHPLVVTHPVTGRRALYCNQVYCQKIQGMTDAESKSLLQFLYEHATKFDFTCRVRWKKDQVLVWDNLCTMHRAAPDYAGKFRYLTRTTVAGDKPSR: 58 °C
- MON-HT3: engineered oxygenase protein, amino acid sequence SEQ ID NO:22 (protein) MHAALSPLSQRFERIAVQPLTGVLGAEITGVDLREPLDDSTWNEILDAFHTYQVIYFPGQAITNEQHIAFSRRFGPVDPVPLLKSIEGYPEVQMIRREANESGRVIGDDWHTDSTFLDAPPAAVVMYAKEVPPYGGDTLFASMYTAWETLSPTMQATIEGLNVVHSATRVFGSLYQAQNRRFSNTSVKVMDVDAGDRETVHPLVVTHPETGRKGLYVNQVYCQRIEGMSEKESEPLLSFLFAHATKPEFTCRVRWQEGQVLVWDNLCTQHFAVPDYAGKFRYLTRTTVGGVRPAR: 48 °C
